# TARGET_OR_SYSTEM: GTPase KRas/RAF1 (Homo sapiens, UniProt P01116+P04049)
# PROCEDURE_TEXT: Inhibition of N-terminal His10-tagged wild-type recombinant human KRAS (1 to 169 residues) expressed in Escherichia coli/N-terminal GST-tagged recombinant human CRAF RBD (51 to 131 residues) expressed in Escherichia coli protein-protein interaction preincubated for 30 mins with KRAS followed by CRAF RBD addition measured after 60 mins in presence of anti-6His-XL665/GTP by HTRF analysis
Kindly state IC50 for each of the entries shown.

> print(dat)
                                   compound                          target.or.system  reading
1  COc1cc2nc(C)nc(NC(C)c3ccc(-c4cnc5n4CCC5)s3)c2cc1OC (configuration not stated)  GTPase KRas/RAF1 (Homo sapiens, UniProt P01116+P04049)  > 20 µM

stdin: Quick check: IC50 on GTPase KRas/RAF1 (Homo sapiens, UniProt P01116+P04049), item `COc1cc2ncnc(N[C@H](C)c3cccc4ccccc34)c2cc1OC` ?
stdout: > 20 µM

====

# Tested on: K562
# PROCEDURE_TEXT: Antiproliferative activity against human K562 cells assessed as inhibition of cell viability incubated for 72 hrs by Cell Titer Glo assay
# Assay type: functional, cell-based
# MEASUREMENT_SETUP: K562, 72 h
ENDPOINT_NAME: IC50 (nM)
One number for each entry, in nM.

Worked examples, 3 compounds total:
> print(dat)
                                   compound  reading
1  CNCc1ccccc1-c1csc([C@@H](C)Nc2nc(C)nc3cc(OC)c(OC)cc23)c1     1090
2  CNCc1ccccc1-c1csc([C@H](C)Nc2nc(C)nc3cc(OC)c(OC)cc23)c1     7500
3  CNCc1ccccc1-c1csc(C(C)Nc2nc(C)nc3cc(OC)c(OC)cc23)c1 (centres undefined)     1100

Now, please, on to the next compound.
stdin: Which IC50 value belongs to `COc1cc2nc(C)nc(N[C@H](C)c3cccc(-c4cn[nH]c4)c3)c2cc1OC` ?
stdout: 3100

====

# TARGET_OR_SYSTEM: UniProt:Q07889
# PROCEDURE_TEXT: Stabilization of N-terminal His10-tagged wild-type recombinant human SOS1 catalytic domain (564 to 1049 residues) expressed in Escherichia coli assessed as change in melting temperature at 100 uM with heating from 25 to 85 degreeC by thermal shift assay
ENDPOINT_NAME: ΔTm
Show the value, then the unit it is measured in.

Use the examples below as a reference point.
> print(dat)
                                   molecule  endpoint.name  reading
1  CNCc1ccccc1-c1csc(C(C)Nc2nc(C)nc3cc(OC)c(OC)cc23)c1 (centres undefined)            ΔTm  2.96 °C
2  COc1cc2ncnc(N[C@H](C)c3cccc4ccccc34)c2cc1OC            ΔTm   2.5 °C
3  CNCc1ccccc1-c1csc([C@@H](C)Nc2nc(C)nc3cc(OC)c(OC)cc23)c1            ΔTm  3.17 °C

Proceed to the following item.
stdin: Recorded ΔTm for `CNCc1ccccc1-c1csc([C@H](C)Nc2nc(C)nc3cc(OC)c(OC)cc23)c1` , please?
stdout: 0.28 °C

Source of measurements: ChEMBL document CHEMBL5678818
